Test system: BT-549 breast
test_description: NCI tumour cell line growth inhibition, 48 h
assay_metric: TGI

What measured TGI goes with `Cc1cc(C)nc(NC(=S)Nc2ccccc2Cl)c1` ? > 100 µM

What measured TGI goes with `CC(=O)Oc1ccc2c(C)cc(=O)oc2c1` ? > 100 µM

What measured TGI goes with COc1cc(C(O)c2nc3ccccc3s2)cc(OC)c1OC (stereo not given) ? > 100 µM

What measured TGI goes with `COc1ccc(-c2nnc(SCC(=O)Nc3ccc(/C(C)=N\O)cc3)n2-c2ccccc2)cc1OC` ? > 100 µM

What measured TGI goes with `C=CC1=C[C@@H]2[C@@H]3O[C@]4(CC[C@H](O4)[C@@H](C)C[C@@H](O)C3=O)C[C@H](O)C3=NCC[C@@]32CC1` ? < 0.00333 µM

###

Test system: XF 498 CNS
test_description: NCI tumour cell line growth inhibition, 48 h
For each of the molecules below, state its TGI.

What measured TGI goes with `O=C(c1ccccc1)[C@H]1Nc2ccc(Cl)cc2[C@H]2OCCC[C@@H]12` ? 33.6 µM

What measured TGI goes with CC1CC(c2cccc3c2OCO3)=Nc2ccccc2S1 (stereo unspecified) ? > 100 µM

What measured TGI goes with `Nc1c(Br)c(=O)[nH]c(=O)n1COCCO` ? > 100 µM

What measured TGI goes with `c1ccc(C(c2ccccc2)[P+](c2ccccc2)(c2ccccc2)c2ccccc2)cc1` ? 0.737 µM

What measured TGI goes with OCC(O)C(OC1OC(CO)C(O)C(O)C1O)c1nn(-c2ccccc2)c2nc3cc(Cl)c(Cl)cc3cc12 (stereo unspecified) ? > 100 µM

What measured TGI goes with `CCOC(=O)C1=C(NNC(=O)Cc2ccccc2)CSC1=Nc1ccccc1` ? > 100 µM

###

For each of the compounds below, state its TGI.
System: MDA-N
test_description: NCI tumour cell line growth inhibition, 48 h
Numeric only. Scale: µM

What measured TGI goes with `C/C(=N\NC(=S)NC1CCCC1)c1ccccn1` ? 35.4

What measured TGI goes with CC(C)(C)[Si](C)(C)OCC1OC(n2ccc(=O)[nH]c2=O)C(O[Si](C)(C)C(C)(C)C)[C@@]12O[C@H]2C(N)=O (some centres undefined) ? 24.1

What measured TGI goes with C=C(C(=O)O)C1CCC(CC/C=C(\C)CC/C=C(\C)CCC=C(C)C)CO1 (centres undefined) ? 27.8

What measured TGI goes with CC(C)C1OC2(C)OC(=N)C1(C#N)C(C#N)(C#N)C2C (centres undefined) ? 29.8

What measured TGI goes with `CCCCNc1c(CN)cnc2cc(Cl)ccc12` ? 39.3

###

For each of the compounds below, state its TGI.
Test system: SW-620 colon
test_description: NCI tumour cell line growth inhibition, 48 h

What measured TGI goes with COC(=O)C1C2C=CC(C2)C1(C(=O)OC)S(=O)CC12CCC(CC1O)C2(C)C (centres undefined) ? 37.6 µM

What measured TGI goes with `O=Cc1cn(Cc2cccc(Cl)c2)c2ccccc12` ? 23.1 µM

What measured TGI goes with `C=C(C)[C@@H]1CC[C@]2(C(=O)NCCNCCNCCN)CC[C@]3(C)[C@H](CC[C@@H]4[C@@]5(C)CC[C@H](O)C(C)(C)[C@@H]5CC[C@]43C)[C@@H]12` ? 34.4 µM

What measured TGI goes with `COc1cc(NCc2ccc3nc(-c4ccccc4)c(N)nc3c2)cc(OC)c1OC` ? > 100 µM

What measured TGI goes with CC1CC(c2cccc3c2OCO3)=Nc2ccccc2S1 (centres undefined) ? > 100 µM

What measured TGI goes with C=CCOC1OC(CS(=O)(=O)O)C(O)C(O)C1O (centres undefined) ? > 100 µM

What measured TGI goes with `O=c1c2cccc3cccc(c4oc5c6cccc7cccc(c(=O)c5c14)c76)c32` ? 17 µM

What measured TGI goes with `C=CCOc1ccc(/C(N=Nc2ccccc2)=N/NC(=O)c2ccccc2)cc1OC` ? > 100 µM

What measured TGI goes with OCC1OC(Oc2cc(O)cc(/C=C/c3ccc(O)cc3)c2)C(O)C(O)C1O (centres undefined) ? > 100 µM

What measured TGI goes with Cc1cc(C)c2c(c1)Nc1ccccc1P2c1ccccc1 (centres undefined) ? > 100 µM

What measured TGI goes with `CCOC(=O)C1=C(NNC(=O)Cc2ccccc2)CSC1=Nc1ccccc1` ? > 100 µM

What measured TGI goes with C=C1C(=O)OC2C1CC[C@H](C)C13OC(=O)CC1[C@@]23C (some centres undefined) ? > 100 µM

What measured TGI goes with `Fc1cccc2cc3ccc4cccc5ccc(c12)c3c45` ? > 100 µM

What measured TGI goes with `COc1cc(Cl)cc(N(O)C(C)=O)c1OCc1ccccc1` ? > 100 µM

###

Tested on: SK-MEL-2 melanoma
test_description: NCI tumour cell line growth inhibition, 48 h
For each of the compounds below, state its TGI.

What measured TGI goes with `COc1cccc(Nc2nc(-c3cccs3)nc3ccc(Br)cc23)c1` ? > 100 µM

What measured TGI goes with `CN(C)CCCNc1ncnc2nc[nH]c12` ? > 100 µM

What measured TGI goes with `CSc1nc(-c2ccc(C)cc2)c(C#N)c(=O)[nH]1` ? > 100 µM

What measured TGI goes with O=C(O)C(O)Cc1ccccn1 (stereo unspecified) ? > 100 µM

What measured TGI goes with `CCN(CCCN(CC)C(=O)Nc1ccccc1)C(=O)Nc1ccccc1` ? > 100 µM

What measured TGI goes with `O=C(c1ccco1)n1c2ccc(Br)cc2c2nc3ccccc3nc21` ? > 100 µM

What measured TGI goes with `Cc1ccc(S(=O)(=O)NNC(=O)c2sc(-c3nc(C)c(C(=O)NNS(=O)(=O)c4ccc(C)cc4)s3)nc2C)cc1` ? > 100 µM

What measured TGI goes with `COc1cc(C[C@H]2C(=O)OC[C@@H]2Cc2ccc(OC)c(OC)c2)cc(OC)c1` ? > 100 µM

What measured TGI goes with `N#Cc1c2cccnc2c2nnc3cc(Cl)c(Cl)cc3n12` ? > 100 µM

What measured TGI goes with `COC(=O)[C@@H](O)[C@]1(C(=O)OC)C2O[C@@H](OC)[C@@H]1CCCCCC[C@H]2O` ? > 100 µM

What measured TGI goes with `Cc1nn(-c2ccccc2)c2c1CC(=O)Nc1ccccc1-2` ? > 100 µM

What measured TGI goes with `C(=C\c1nccs1)/c1cccc(/C=C/c2nccs2)n1` ? > 50 µM

What measured TGI goes with `COc1ccc(Cc2c(N)[nH]c(=O)n(C)c2=O)cc1` ? > 100 µM

What measured TGI goes with `O=c1[nH]/c(=C/c2ccc(OCc3ccccc3)cn2)c(=O)[nH]/c1=C/c1ccc(Cl)cc1` ? > 100 µM

What measured TGI goes with COC1(O)C(=O)c2ccccc2OC1(OC)c1ccccc1 (stereo unspecified) ? > 100 µM

What measured TGI goes with CC(O)(/C=C/c1ccccc1)P(=O)(O)c1ccccc1 (stereo unspecified) ? > 100 µM

###

System: UACC-257 melanoma
test_description: NCI tumour cell line growth inhibition, 48 h
assay_metric: GI50

Return GI50 measured with UACC-257 melanoma given this compound: `CC(C)C[C@H](NC(=O)[C@H]1O[C@@H]1C(=O)O)C(=O)NCCc1ccc(O)cc1` > 100 µM

Return GI50 measured with UACC-257 melanoma given this compound: `C=CC(=O)N1CCN(c2nc(OC[C@@H]3CCCN3C)nc3c2CCN(c2cccc4cccc(C)c24)C3)C[C@@H]1CC#N` 1.79 µM

Return GI50 measured with UACC-257 melanoma given this compound: `Cc1nc2sc(C(=O)Nc3cccc4ccccc34)c(N)c2cc1C(=O)/C=C/c1ccccc1` 5.09 µM

Return GI50 measured with UACC-257 melanoma given this compound: `[C-]#[O+].[C-]#[O+].[C-]#[O+].[C-]#[O+].[Ir].[Ir].[O-]c1ccc2ccccc2c1C=Nc1ccc(N=Cc2c([O-])ccc3ccccc23)cc1` > 100 µM

###

Test system: ACHN renal
test_description: NCI tumour cell line growth inhibition, 48 h; in the data active = GI50 below about 0.43 µM; inactive = the rest
Outcomes you can answer with include only these: 1 (yes) (active), 0 (no) (inactive)

Outcome logged for CC(CN1CCN(C)CC1)CN1c2ccccc2Sc2ccc(C(F)(F)F)cc21 (stereo not given) in this assay: 0 (no)

Outcome logged for `C[C@H]1[C@H](C)CC[C@]2(C(=O)N3CCN(C)CC3)CC[C@]3(C)C(=CC[C@@H]4[C@@]5(C)C/C(=C/c6cccnc6)C(=O)C(C)(C)[C@@H]5CC[C@]43C)[C@H]12` in this assay: 0 (no)

Outcome logged for `CC(C)[C@@]12C[C@@H](OC(=O)COC(=O)/C=C/c3ccccc3)[C@@](C)(O1)[C@@H]1CC[C@@H](C)[C@H]1[C@@H]2OC(=O)/C=C/c1ccccc1` in this assay: 1 (yes)

Outcome logged for `Cn1ccnc1C(=O)/C=C/c1ccc(CC(=O)Nc2ccc(S(F)(F)(F)(F)F)cc2)cc1` in this assay: 0 (no)

Outcome logged for `C=C(C)[C@@H]1CC[C@]2(C(=O)NCCNCCNCCN)CC[C@]3(C)[C@H](CC[C@@H]4[C@@]5(C)CC[C@H](O)C(C)(C)[C@@H]5CC[C@]43C)[C@@H]12` in this assay: 0 (no)
